Data credit: patent US8703961B2

Kindly supply the reported IC50 values for the records listed here.
# target-entity: CDK2 (Homo sapiens, UniProt P24941)

Consider the reported IC50 for these molecules:
[[record]]
molecule = "Nc1ncsc1C#Cc1cnc2[nH]ccc2c1 [Compound A22]"
target_entity = "CDK2 (Homo sapiens, UniProt P24941)"
endpoint_name = "IC50"
meas_value = "1 to 10 µM"

[[record]]
molecule = "c1ccc(Cc2c[nH]c3ncsc23)cc1 [Compound A7, 6-benzyl-4H-pyrrolo[2,3-d]thiazole]"
target_entity = "CDK2 (Homo sapiens, UniProt P24941)"
endpoint_name = "IC50"
meas_value = "0.01 to 1 µM"

[[record]]
molecule = "CC(C)(C)OC(=O)Nc1ncsc1C#CCN1C(=O)c2ccccc2C1=O [Compound A26]"
target_entity = "CDK2 (Homo sapiens, UniProt P24941)"
endpoint_name = "IC50"
meas_value = "0.01 to 1 µM"

[[record]]
molecule = "CC(C)(C)OC(=O)Nc1nc(-c2ccncc2)sc1C#CCN1CCOCC1 [Compound A25]"
target_entity = "CDK2 (Homo sapiens, UniProt P24941)"
endpoint_name = "IC50"
meas_value = "10 to 100 µM"


We next turn to a different molecule, shown below.
Need IC50 of Nc1ncsc1C#Cc1cccc(O)c1 [Compound A27, 3-(4-aminothiazol-5-ylethynyl)phenol] , thanks.
10 to 100 µM

====

pIC50: −log10 of the molar value.
Listed here: molecules with reported pIC50 for MARK2 (Homo sapiens).

Consider the reported pIC50 for these molecules:
[[record]]
molecule = "Nc1ncsc1C#Cc1cccc(O)c1"
target_entity = "MARK2 (Homo sapiens)"
meas_value = "4.00 to 5.00"

[[record]]
molecule = "CC(C)(C)OC(=O)Nc1ncsc1C#CCN1C(=O)c2ccccc2C1=O"
target_entity = "MARK2 (Homo sapiens)"
meas_value = "5.00 to 6.00"

[[record]]
molecule = "CC(C)(C)OC(=O)Nc1nc(-c2ccncc2)sc1C#CCN1CCOCC1"
target_entity = "MARK2 (Homo sapiens)"
meas_value = "< 6.00"

[[record]]
molecule = "Nc1ncsc1C#Cc1cnc2[nH]ccc2c1"
target_entity = "MARK2 (Homo sapiens)"
meas_value = "6.00 to 8.00"


We next turn to a different molecule, shown below.
Need pIC50 of c1ccc(Cc2c[nH]c3ncsc23)cc1 [Compound A7, 6-benzyl-4H-pyrrolo[2,3-d]thiazole] , thanks.
4.00 to 5.00

====

Listed here: molecules with reported pIC50 for PIM2 (Homo sapiens).
pIC50: −log10 of the molar value.

# return pIC50 for each item in the list
1. Nc1ncsc1C#Cc1cccc(O)c1 [Compound A27, 3-(4-aminothiazol-5-ylethynyl)phenol]
2. CC(C)(C)OC(=O)Nc1ncsc1C#CCN1C(=O)c2ccccc2C1=O [Compound A26]
3. Nc1ncsc1C#Cc1cnc2[nH]ccc2c1 [Compound A22]
4. CC(C)(C)OC(=O)Nc1nc(-c2ccncc2)sc1C#CCN1CCOCC1 [Compound A25]
5. c1ccc(Cc2c[nH]c3ncsc23)cc1 [Compound A7, 6-benzyl-4H-pyrrolo[2,3-d]thiazole]

1. 5.00 to 6.00
2. < 6.00
3. 4.00 to 5.00
4. 5.00 to 6.00
5. < 6.00

====

# target-entity: STK11 (Homo sapiens)
# Sequence (Q15831 1-433): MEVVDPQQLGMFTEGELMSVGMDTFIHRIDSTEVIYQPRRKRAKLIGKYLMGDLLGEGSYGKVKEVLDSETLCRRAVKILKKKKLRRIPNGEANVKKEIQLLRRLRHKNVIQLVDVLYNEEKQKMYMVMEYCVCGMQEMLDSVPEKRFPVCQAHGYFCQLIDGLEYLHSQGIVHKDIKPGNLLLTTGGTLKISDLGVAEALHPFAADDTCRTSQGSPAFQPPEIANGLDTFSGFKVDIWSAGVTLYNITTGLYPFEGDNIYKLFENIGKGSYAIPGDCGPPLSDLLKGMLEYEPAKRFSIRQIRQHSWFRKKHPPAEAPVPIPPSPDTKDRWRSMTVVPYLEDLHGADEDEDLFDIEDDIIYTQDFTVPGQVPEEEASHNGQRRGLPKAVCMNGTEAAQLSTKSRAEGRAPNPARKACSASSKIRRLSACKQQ
# Sequence (Q7RTN6 1-431 partner): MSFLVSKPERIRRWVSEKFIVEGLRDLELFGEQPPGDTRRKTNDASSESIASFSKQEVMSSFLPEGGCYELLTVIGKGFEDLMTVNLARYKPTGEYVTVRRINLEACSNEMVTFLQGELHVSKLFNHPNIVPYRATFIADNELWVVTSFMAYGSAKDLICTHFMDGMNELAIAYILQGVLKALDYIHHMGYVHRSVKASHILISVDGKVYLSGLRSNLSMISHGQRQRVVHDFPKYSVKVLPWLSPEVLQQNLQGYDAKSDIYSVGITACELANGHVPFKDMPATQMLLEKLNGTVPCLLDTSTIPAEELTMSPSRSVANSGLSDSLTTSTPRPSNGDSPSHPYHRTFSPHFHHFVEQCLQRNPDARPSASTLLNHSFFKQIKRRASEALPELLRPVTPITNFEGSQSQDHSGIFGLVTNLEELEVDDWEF
# Sequence (Q9Y376 1-341 partner): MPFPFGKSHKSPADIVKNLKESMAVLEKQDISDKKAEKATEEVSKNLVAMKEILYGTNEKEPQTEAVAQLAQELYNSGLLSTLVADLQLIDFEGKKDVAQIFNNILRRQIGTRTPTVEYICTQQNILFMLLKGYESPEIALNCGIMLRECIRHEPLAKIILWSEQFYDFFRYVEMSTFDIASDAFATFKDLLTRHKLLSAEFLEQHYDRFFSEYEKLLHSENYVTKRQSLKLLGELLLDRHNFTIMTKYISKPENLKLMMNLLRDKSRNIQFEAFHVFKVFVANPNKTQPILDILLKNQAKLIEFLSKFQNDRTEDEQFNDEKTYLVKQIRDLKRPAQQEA
pIC50: −log10 of the molar value.
endpoint-name: pIC50

Consider the reported pIC50 for these compounds:
[[record]]
compound = "Nc1ncsc1C#Cc1cccc(O)c1 [Compound A27, 3-(4-aminothiazol-5-ylethynyl)phenol]"
target_entity = "STK11 (Homo sapiens)"
endpoint_name = "pIC50"
meas_value = "< 6.00"

[[record]]
compound = "c1ccc(Cc2c[nH]c3ncsc23)cc1 [Compound A7, 6-benzyl-4H-pyrrolo[2,3-d]thiazole]"
target_entity = "STK11 (Homo sapiens)"
endpoint_name = "pIC50"
meas_value = "4.00 to 5.00"

[[record]]
compound = "CC(C)(C)OC(=O)Nc1nc(-c2ccncc2)sc1C#CCN1CCOCC1 [Compound A25]"
target_entity = "STK11 (Homo sapiens)"
endpoint_name = "pIC50"
meas_value = "< 6.00"


# return pIC50 for each item in the list
1. Nc1ncsc1C#Cc1cnc2[nH]ccc2c1 [Compound A22]
2. CC(C)(C)OC(=O)Nc1ncsc1C#CCN1C(=O)c2ccccc2C1=O [Compound A26]

< 6.00
4.00 to 5.00
